meta.source: the supplement of paper PMC6555819

- Test system: LXRb:RXRa (NR concentration 270 nM, RXRa partner concentration 90 nM)
- Assay Details: PBM binding z-score (relative to random genomic background probes); higher = stronger binding; sequences stand for … in GC…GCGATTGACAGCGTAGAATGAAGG
Outcome Measure: PBM binding z-score
Format: numeric value only, no unit, no commentary.

query: Test system LXRb:RXRa (NR concentration 270 nM, RXRa partner concentration 90 nM); read-out PBM binding z-score; what value for `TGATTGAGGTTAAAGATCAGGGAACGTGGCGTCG` ?
result: 1.85

query: Quick check: PBM binding z-score on LXRb:RXRa (NR concentration 270 nM, RXRa partner concentration 90 nM), item `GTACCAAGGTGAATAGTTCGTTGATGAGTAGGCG` ?
result: 0.214

query: Recorded PBM binding z-score for `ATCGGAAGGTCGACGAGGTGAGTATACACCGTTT` with LXRb:RXRa (NR concentration 270 nM, RXRa partner concentration 90 nM), please?
result: 0.827

query: Hi! What's the reported PBM binding z-score for `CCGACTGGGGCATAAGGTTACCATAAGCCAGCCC` on LXRb:RXRa (NR concentration 270 nM, RXRa partner concentration 90 nM)?
result: 0.645

query: For the record `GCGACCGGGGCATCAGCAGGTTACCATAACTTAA` , what value of PBM binding z-score is listed for LXRb:RXRa (NR concentration 270 nM, RXRa partner concentration 90 nM)?
result: 0.643

query: Requested read-out PBM binding z-score, target or system LXRb:RXRa (NR concentration 270 nM, RXRa partner concentration 90 nM), entry `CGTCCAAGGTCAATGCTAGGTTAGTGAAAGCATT`
result: 3.76

###

- System: PPARg:RXRa 270nM:90nM, anti-RXR (NR concentration 270 nM, RXRa partner concentration 90 nM)
- Assay Details: PBM binding z-score (relative to random genomic background probes); higher = stronger binding; sequences stand for … in GC…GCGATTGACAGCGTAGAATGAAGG
Decision: PBM binding z-score compared against 2; not below it gives TRUE, below it gives FALSE.

query: Please indicate if the recorded PBM binding z-score for `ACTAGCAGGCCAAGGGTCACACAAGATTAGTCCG` meets or exceeds 2.
result: TRUE

query: Check if PBM binding z-score >= 2 (inclusive). Item: `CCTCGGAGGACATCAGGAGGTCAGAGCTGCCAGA`
result: FALSE

query: Has `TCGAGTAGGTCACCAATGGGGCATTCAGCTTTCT` a recorded PBM binding z-score greater than or equal to 2?
result: TRUE

query: Assess whether reported PBM binding z-score for `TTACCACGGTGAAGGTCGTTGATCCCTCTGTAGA` sits at 2 or higher.
result: FALSE

query: Is reported PBM binding z-score greater than or equal to 2 here: `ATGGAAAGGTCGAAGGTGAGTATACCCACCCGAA`
result: TRUE

query: Decide: PBM binding z-score of `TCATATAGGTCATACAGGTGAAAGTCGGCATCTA` >= 2?
result: TRUE

query: Answer whether PBM binding z-score of `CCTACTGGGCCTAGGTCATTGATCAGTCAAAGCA` is greater than or equal to 2.
result: FALSE

query: Is PBM binding z-score for `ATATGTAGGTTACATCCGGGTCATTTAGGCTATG` at or above 2?
result: TRUE

query: Item `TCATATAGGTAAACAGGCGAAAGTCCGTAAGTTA` with PBM binding z-score of 2 or above?
result: TRUE

query: Item `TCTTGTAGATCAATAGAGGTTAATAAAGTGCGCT` with PBM binding z-score of 2 or above?
result: FALSE

query: Is PBM binding z-score at least 2? Consider `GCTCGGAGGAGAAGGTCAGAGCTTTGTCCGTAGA`
result: FALSE

query: Item `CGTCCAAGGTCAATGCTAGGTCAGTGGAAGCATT` with PBM binding z-score of 2 or above?
result: TRUE

###

- Tested on: PPARg:RXRa (NR concentration 180 nM, RXRa partner concentration 90 nM)
- Assay Details: PBM binding z-score (relative to random genomic background probes); higher = stronger binding; sequences stand for … in GC…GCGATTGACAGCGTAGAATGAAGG
What PBM binding z-score was measured for each of the following?

query: Given the sequence `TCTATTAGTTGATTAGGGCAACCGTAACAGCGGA` , what is its reported PBM binding z-score?
result: 0.178

query: Report PBM binding z-score for `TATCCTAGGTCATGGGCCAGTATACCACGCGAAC` please.
result: 5.5

query: What value of PBM binding z-score has been recorded for this entry: `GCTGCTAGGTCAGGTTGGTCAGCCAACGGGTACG`
result: 0.298

query: Can you share its PBM binding z-score? I mean this sequence: `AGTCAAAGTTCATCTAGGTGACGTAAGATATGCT`
result: 7.01

query: Which PBM binding z-score value belongs to `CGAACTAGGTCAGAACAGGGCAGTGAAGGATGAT` ?
result: 5.03

query: Which PBM binding z-score is reported for this sequence? `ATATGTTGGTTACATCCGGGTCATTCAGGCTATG`
result: 1.07

query: PBM binding z-score lookup needed for `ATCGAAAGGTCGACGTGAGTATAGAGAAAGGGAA` , thanks.
result: 2.45

query: // lookup PBM binding z-score for `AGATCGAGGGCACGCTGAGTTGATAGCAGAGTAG`
result: 1.76

query: For the sequence shown here, `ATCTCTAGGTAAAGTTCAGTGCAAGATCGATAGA` , give the reported PBM binding z-score.
result: 3.48

query: # lookup: PBM binding z-score of `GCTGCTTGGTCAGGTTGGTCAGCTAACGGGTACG`
result: -0.682

query: Can you look up the measured PBM binding z-score of `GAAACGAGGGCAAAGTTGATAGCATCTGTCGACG` for me?
result: 7.78

query: I would be grateful if you could share the reported PBM binding z-score for `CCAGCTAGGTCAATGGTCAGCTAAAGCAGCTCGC` .
result: 5.08

query: Any idea what PBM binding z-score was measured for `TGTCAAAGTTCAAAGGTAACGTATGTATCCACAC` ?
result: 8.6

query: Fill in the blank: the reported PBM binding z-score of `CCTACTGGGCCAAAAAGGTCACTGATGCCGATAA` is ____.
result: 3.78

query: May I ask what PBM binding z-score has been recorded for `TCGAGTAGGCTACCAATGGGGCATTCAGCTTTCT` ?
result: -0.358

query: Give its PBM binding z-score value. Item: `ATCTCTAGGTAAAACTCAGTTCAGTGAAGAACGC`
result: 0.101

query: Which PBM binding z-score is listed for `CGAACGAGGGCTTGAGTTGATAGCAAATGCCGAT` ?
result: 0.25

query: Fill in the blank: the reported PBM binding z-score of `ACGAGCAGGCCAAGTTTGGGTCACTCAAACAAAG` is ____.
result: -0.00564

query: Which PBM binding z-score reading was recorded for the sequence `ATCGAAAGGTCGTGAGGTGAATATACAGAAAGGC` ?
result: 4.88

query: Item `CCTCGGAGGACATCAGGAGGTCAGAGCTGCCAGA` has what recorded PBM binding z-score?
result: 0.267

query: // query PBM binding z-score value for entry `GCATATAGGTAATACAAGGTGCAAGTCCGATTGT`
result: 0.975

query: I'd like to know its PBM binding z-score. The sequence in question is `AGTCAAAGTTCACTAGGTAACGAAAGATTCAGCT`
result: 7.8

query: Endpoint output: PBM binding z-score of `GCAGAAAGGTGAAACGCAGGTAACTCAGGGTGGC` . Value?
result: 1.57

query: What measured PBM binding z-score goes with `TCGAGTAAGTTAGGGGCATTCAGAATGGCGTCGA` ?
result: -0.191

query: // PBM binding z-score lookup, key: `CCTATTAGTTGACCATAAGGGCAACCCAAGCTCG`
result: 0.661

query: I have this sequence here, `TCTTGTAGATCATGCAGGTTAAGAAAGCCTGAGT` , and I need its recorded PBM binding z-score.
result: -0.222

query: Looking for the measured PBM binding z-score of `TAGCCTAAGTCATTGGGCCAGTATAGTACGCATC` , can you help?
result: 0.256

query: So what does the record say about PBM binding z-score for `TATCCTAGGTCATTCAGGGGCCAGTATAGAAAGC` ?
result: 3.29

query: What does the record list as PBM binding z-score for `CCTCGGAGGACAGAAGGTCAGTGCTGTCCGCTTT` ?
result: -0.509

query: Item `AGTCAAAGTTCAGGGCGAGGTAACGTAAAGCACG` has what recorded PBM binding z-score?
result: 5.2

query: Using the record for `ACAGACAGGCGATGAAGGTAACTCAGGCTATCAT` , report its PBM binding z-score.
result: 0.721

query: Reported PBM binding z-score for `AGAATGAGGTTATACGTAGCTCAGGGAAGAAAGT` : what is it?
result: 1.46

query: What PBM binding z-score value was documented for this sequence, `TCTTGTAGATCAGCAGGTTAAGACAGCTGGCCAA` ?
result: -0.112

query: So what does the record say about PBM binding z-score for `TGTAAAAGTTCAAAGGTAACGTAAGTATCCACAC` ?
result: 6.22

query: Look up PBM binding z-score: `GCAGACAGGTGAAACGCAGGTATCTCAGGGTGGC`
result: 0.481

query: Give its PBM binding z-score value. Item: `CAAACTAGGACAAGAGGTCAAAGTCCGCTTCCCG`
result: 5.75

query: For the sequence shown here, `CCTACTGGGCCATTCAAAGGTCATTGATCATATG` , give the reported PBM binding z-score.
result: 3.07

query: Which PBM binding z-score is reported for this sequence? `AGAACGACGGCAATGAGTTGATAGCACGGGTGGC`
result: 0.71

query: For `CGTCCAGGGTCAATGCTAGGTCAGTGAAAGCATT` , what is its reported PBM binding z-score?
result: 4.11

query: Item under review: `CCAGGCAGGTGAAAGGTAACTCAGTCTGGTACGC` . Reported PBM binding z-score?
result: 5.95

query: Can you share its PBM binding z-score? I mean this sequence: `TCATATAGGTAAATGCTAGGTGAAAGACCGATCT`
result: 1.22

query: Consider the sequence shown here: `ATCTCTAGGTTAGACTCAGTTCAGTGAAGAACGC` What is its recorded PBM binding z-score?
result: 0.251

query: Look up PBM binding z-score: `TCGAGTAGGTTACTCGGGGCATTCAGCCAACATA`
result: 0.392

query: # input sequence: `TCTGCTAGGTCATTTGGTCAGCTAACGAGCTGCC` ; wanted: its PBM binding z-score
result: 1.97

query: Look up PBM binding z-score for this sequence: `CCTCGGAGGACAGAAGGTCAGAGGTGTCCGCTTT`
result: 0.463

query: GET /values?readout=PBM binding z-score&item= `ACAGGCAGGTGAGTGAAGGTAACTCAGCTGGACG`
result: 0.199

query: Could you share which PBM binding z-score value was measured for `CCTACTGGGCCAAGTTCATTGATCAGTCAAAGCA` ?
result: 1.24

query: Request the reported PBM binding z-score associated with `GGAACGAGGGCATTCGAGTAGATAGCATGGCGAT`
result: 1.11

query: What does the record list as PBM binding z-score for `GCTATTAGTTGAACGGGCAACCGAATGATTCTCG` ?
result: 0.352

query: Field request: PBM binding z-score | item: `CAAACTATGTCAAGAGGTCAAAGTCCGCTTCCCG`
result: 5.62

query: I have this sequence here, `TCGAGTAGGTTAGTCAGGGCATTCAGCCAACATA` , and I need its recorded PBM binding z-score.
result: 0.0481
